Hey, just so you know, these numbers are from ChEMBL document CHEMBL4342443.

Tested on: RAW264.7
Test: Inhibition of NO production in LPS-stimulated mouse RAW264.7 cells incubated for 24 hrs by Griess reagent-based assay
Format: functional, cell-based
Settings: RAW264.7, 24 h
MEASURED ATTRIBUTE: IC50

Example cases with answers are listed next.
> print(dat)
                                   compound  obs.value
1  CC(C)=CC[C@@H]1C[C@@]23CCC(C)(C)OC2=C(C(=O)c2ccccc2)C(=O)[C@H](C3=O)[C@@]1(C)CCCC(C)(C)O      11 µM
2  COc1c(O)cc2oc3cc(O)c(C/C=C(\C)CO)c(O)c3c(=O)c2c1C/C=C(\C)CCC=C(C)C    13.4 µM

Reported IC50 for CC(C)=CCC/C(C)=C/CCC(C)(O)CCc1c(O)c(O)cc2oc3cc(O)cc(O)c3c(=O)c12 (racemic) : what is it?
7.7 µM
